Provide the reported pIC50 of each item.
Tested on: UACC-257
Assay: NCI panel growth inhibition, sulforhodamine B
Type: cell-based
Conditions: Homo sapiens; UACC-257, Melanoma; drug for last 48 h of 72 h
The meaning of pIC50 here: minus log10 of the concentration in molar units.

Field pIC50 (entry Nc1ccc(Oc2ccc(C3(c4ccc(Oc5ccc(N)c(O)c5)cc4)C4CC5CC(C4)CC3C5)cc2)cc1O [DPA] ) reads 5.63

response.value for Nc1ccc(C2(c3ccc(N)cc3)C3CC4CC(C3)CC2C4)cc1 [2,2-DPANH2, 2,2-bis(4-aminophenyl)adamantane] (field: pIC50) = 4.72

// sample Nc1ccc(Oc2ccc(C34CC5CC(C3)CC(c3ccc(Oc6ccc(N)cc6)cc3)(C5)C4)cc2)cc1 [1,3-DPAONH2] , its pIC50 was 4.90

get_value(item= Nc1ccc(Oc2ccc(C34CC5CC(C3)CC(c3ccc(Oc6ccc(N)cc6C(F)(F)F)cc3)(C5)C4)cc2)c(C(F)(F)F)c1 [1,3-DPA/CF3/NH2] , readout=pIC50) returns 4.73

Lab note: Nc1ccc(Oc2ccc(C3(c4ccc(Oc5ccc(N)cc5)cc4)C4CC5CC(C4)CC3C5)cc2)cc1 [2,2-DPAONH2] gave pIC50 of 5.24

Please fill in: pIC50 reported for Nc1ccc(Oc2ccc(C34CC5CC(C3)CC(c3ccc(Oc6ccc(N)c(O)c6)cc3)(C5)C4)cc2)cc1O [1,3-DPA/OH/NH2] = 5.65

According to the records, this molecule Nc1ccc(C23CC4CC(C2)CC(c2ccc(N)cc2)(C4)C3)cc1 [1,3-DPANH2, 1,3-bis(4-aminophenyl)adamantane] displays pIC50 of 4.12

###

System: UACC-62
Test: NCI panel growth inhibition, sulforhodamine B
Assay type: cell-based
Conditions: Homo sapiens; UACC-62, Melanoma; drug for last 48 h of 72 h
Excerpt: Comparison of anticancer activities of the 1,3-substituted adamantane derivatives, 1,3-bis(4-aminophenyl)adamantane (1,3-DPANH2), 1,3-bis(4-(4-aminophenoxy)phenyl)adamantane (1,3-DPAONH2), 1,3-bis(4-(4-amino-3-hydroxy)phenyl)adamantane (1,3-DPA/OH/NH2) and 1,3-bis(4-(4-amino-2-trifluoromethylphenoxy)phenyl)adamantane (1,3-DPA/CF3/NH2) as shown in FIG. 1 were synthesized in the present invention. […]
pIC50: −log10 of the molar value.
Classification field: satisfied = pIC50 at or over 5; not satisfied = pIC50 under 5.

Given Nc1ccc(Oc2ccc(C34CC5CC(C3)CC(c3ccc(Oc6ccc(N)cc6C(F)(F)F)cc3)(C5)C4)cc2)c(C(F)(F)F)c1 , state whether its pIC50 is at least 5.
not satisfied

Entry Nc1ccc(C23CC4CC(C2)CC(c2ccc(N)cc2)(C4)C3)cc1 : is its pIC50 no less than 5?
not satisfied

Does the reported pIC50 for Nc1ccc(C2(c3ccc(N)cc3)C3CC4CC(C3)CC2C4)cc1 fall at or above the 5 mark?
not satisfied

Determine whether this compound has pIC50 no lower than 5: Nc1ccc(Oc2ccc(C3(c4ccc(Oc5ccc(N)cc5)cc4)C4CC5CC(C4)CC3C5)cc2)cc1
not satisfied

Has Nc1ccc(Oc2ccc(C3(c4ccc(Oc5ccc(N)c(O)c5)cc4)C4CC5CC(C4)CC3C5)cc2)cc1O a recorded pIC50 greater than or equal to 5?
satisfied

# check: pIC50 of Nc1ccc(Oc2ccc(C34CC5CC(C3)CC(c3ccc(Oc6ccc(N)c(O)c6)cc3)(C5)C4)cc2)cc1O is greater than or equal to 5
satisfied

###

Test system: SN12C
Assay: NCI panel growth inhibition, sulforhodamine B
Type: cell-based
Conditions: Homo sapiens, Renal cancer, drug for last 48 h of 72 h
measured-attribute: log10 IC50 (log10 of the value in µM)
Short version: log10 scale, IC50, µM.

The reported log10 IC50 of the molecule Nc1ccc(Oc2ccc(C34CC5CC(C3)CC(c3ccc(Oc6ccc(N)cc6)cc3)(C5)C4)cc2)cc1 was 0.76

log10 IC50 reported for this molecule Nc1ccc(C2(c3ccc(N)cc3)C3CC4CC(C3)CC2C4)cc1 : 1.27

log10 IC50 reported for this molecule Nc1ccc(C23CC4CC(C2)CC(c2ccc(N)cc2)(C4)C3)cc1 : 1.40

Looking up Nc1ccc(Oc2ccc(C34CC5CC(C3)CC(c3ccc(Oc6ccc(N)cc6C(F)(F)F)cc3)(C5)C4)cc2)c(C(F)(F)F)c1 , I found its log10 IC50 recorded as 1.49

Record Nc1ccc(Oc2ccc(C3(c4ccc(Oc5ccc(N)cc5)cc4)C4CC5CC(C4)CC3C5)cc2)cc1 . Reported log10 IC50: 0.56

Item: Nc1ccc(Oc2ccc(C34CC5CC(C3)CC(c3ccc(Oc6ccc(N)c(O)c6)cc3)(C5)C4)cc2)cc1O | log10 IC50: 0.24

So, Nc1ccc(Oc2ccc(C3(c4ccc(Oc5ccc(N)c(O)c5)cc4)C4CC5CC(C4)CC3C5)cc2)cc1O ? Its log10 IC50 was 0.26

###

System: U251
Test: NCI panel growth inhibition, sulforhodamine B
Type: cell-based
Details: Homo sapiens, U-251; U251, CNS cancer; drug for last 48 h of 72 h
pIC50: −log10 of the molar value.
Returns yes if the recorded pIC50 is greater than or equal to 5, and no otherwise.

Does Nc1ccc(Oc2ccc(C34CC5CC(C3)CC(c3ccc(Oc6ccc(N)cc6C(F)(F)F)cc3)(C5)C4)cc2)c(C(F)(F)F)c1 have a reported pIC50 of at least 5?
no

Threshold query (pIC50 >= 5) on Nc1ccc(C2(c3ccc(N)cc3)C3CC4CC(C3)CC2C4)cc1
no

Does the compound Nc1ccc(Oc2ccc(C3(c4ccc(Oc5ccc(N)c(O)c5)cc4)C4CC5CC(C4)CC3C5)cc2)cc1O have recorded pIC50 that is 5 or more?
yes

# check: pIC50 of Nc1ccc(C23CC4CC(C2)CC(c2ccc(N)cc2)(C4)C3)cc1 is greater than or equal to 5
no

Could you verify whether the entry Nc1ccc(Oc2ccc(C3(c4ccc(Oc5ccc(N)cc5)cc4)C4CC5CC(C4)CC3C5)cc2)cc1 shows pIC50 of no less than 5?
yes

Hi team, for Nc1ccc(Oc2ccc(C34CC5CC(C3)CC(c3ccc(Oc6ccc(N)c(O)c6)cc3)(C5)C4)cc2)cc1O , is the recorded pIC50 at or above 5?
yes

###

System: CCRF-CEM
Assay: NCI panel growth inhibition, sulforhodamine B
Assay type: cell-based
Conditions: Homo sapiens, Leukemia, drug for last 48 h of 72 h
Excerpt: Comparison of anticancer activities of the 1,3-substituted adamantane derivatives, 1,3-bis(4-aminophenyl)adamantane (1,3-DPANH2), 1,3-bis(4-(4-aminophenoxy)phenyl)adamantane (1,3-DPAONH2), 1,3-bis(4-(4-amino-3-hydroxy)phenyl)adamantane (1,3-DPA/OH/NH2) and 1,3-bis(4-(4-amino-2-trifluoromethylphenoxy)phenyl)adamantane (1,3-DPA/CF3/NH2) as shown in FIG. 1 were synthesized in the present invention. […]
Can you tell me log10(IC50) for the items I'm about to list?
Could you please treat all values as log10 of IC50 in µM?

Field log10(IC50) (entry Nc1ccc(C2(c3ccc(N)cc3)C3CC4CC(C3)CC2C4)cc1 [2,2-DPANH2, 2,2-bis(4-aminophenyl)adamantane] ) reads 0.58

Value of measured log10(IC50) for the entry Nc1ccc(Oc2ccc(C34CC5CC(C3)CC(c3ccc(Oc6ccc(N)cc6C(F)(F)F)cc3)(C5)C4)cc2)c(C(F)(F)F)c1 [1,3-DPA/CF3/NH2] : 1.56

Entry Nc1ccc(Oc2ccc(C34CC5CC(C3)CC(c3ccc(Oc6ccc(N)cc6)cc3)(C5)C4)cc2)cc1 [1,3-DPAONH2] , log10(IC50) reported as 0.68

Value of log10(IC50) reported for the compound Nc1ccc(C23CC4CC(C2)CC(c2ccc(N)cc2)(C4)C3)cc1 [1,3-DPANH2, 1,3-bis(4-aminophenyl)adamantane] is 1.20

Reported log10(IC50) of Nc1ccc(Oc2ccc(C3(c4ccc(Oc5ccc(N)cc5)cc4)C4CC5CC(C4)CC3C5)cc2)cc1 [2,2-DPAONH2] : 0.48

get_value(item= Nc1ccc(Oc2ccc(C3(c4ccc(Oc5ccc(N)c(O)c5)cc4)C4CC5CC(C4)CC3C5)cc2)cc1O [DPA] , readout=log10(IC50)) returns 0.49

###

System: KM12
Experiment: NCI panel growth inhibition, sulforhodamine B
Assay type: cell-based
Conditions: Homo sapiens, KM12, KM12, Colon cancer; drug for last 48 h of 72 h
measured-attribute: IC50 (µM)
I only need the number, in µM, no unit after it.

The recorded IC50 for Nc1ccc(Oc2ccc(C34CC5CC(C3)CC(c3ccc(Oc6ccc(N)cc6C(F)(F)F)cc3)(C5)C4)cc2)c(C(F)(F)F)c1 is 21

// field: IC50; key: Nc1ccc(Oc2ccc(C34CC5CC(C3)CC(c3ccc(Oc6ccc(N)c(O)c6)cc3)(C5)C4)cc2)cc1O ; value = 1.72

Notebook: Nc1ccc(Oc2ccc(C34CC5CC(C3)CC(c3ccc(Oc6ccc(N)cc6)cc3)(C5)C4)cc2)cc1 , IC50 read as 4.07

Entry Nc1ccc(Oc2ccc(C3(c4ccc(Oc5ccc(N)cc5)cc4)C4CC5CC(C4)CC3C5)cc2)cc1 , IC50 reported as 3.55

The reported IC50 of the molecule Nc1ccc(Oc2ccc(C3(c4ccc(Oc5ccc(N)c(O)c5)cc4)C4CC5CC(C4)CC3C5)cc2)cc1O was 2.02
